Provide the recorded Activity for the entries that follow.
System: Mus musculus
Assay: Antiosteoporosis activity in ovariectomized ICR mouse assessed as mineral content in femur at 110.3 nmol/kg, po treated for 4 weeks measured after 1 day of last treatment
Format: functional
Residues, ends and D or L forms follow the SMILES beside them. *: point of attachment. Succinyl(O17-estradiol) = C[C@]12CC[C@@H]3c4ccc(O)cc4CC[C@H]3[C@@H]1CC[C@@H]2OC(=O)CCC(=O)*; Acetyl(estradiol-3-yloxy) = C[C@]12CC[C@@H]3c4ccc(OCC(=O)*)cc4CC[C@H]3[C@@H]1CC[C@@H]2O
One number for each entry, in %.

C[C@]12CC[C@@H]3c4ccc(O)cc4CC[C@H]3[C@@H]1CC[C@@H]2OC(=O)CCC(=O)N[C@@H](CCCNC(=N)N)C(=O)NCC(=O)N[C@@H](CC(=O)O)C(=O)N[C@@H](CO)C(=O)N[C@@H](CCCNC(=N)N)C(=O)NCC(=O)N[C@@H](CC(=O)O)C(=O)N[C@@H](CO)C(=O)O ({Succinyl(O17-estradiol)}-RGDSRGDS-OH) ... 0.625

Parameter requested: Activity. Apply to each item below.
1. C[C@]12CC[C@@H]3c4ccc(OCC(=O)N[C@@H](CCCNC(=N)N)C(=O)NCC(=O)N[C@@H](CC(=O)O)C(=O)N[C@@H](CO)C(=O)O)cc4CC[C@H]3[C@@H]1CC[C@@H]2O ({Acetyl(estradiol-3-yloxy)}-RGDS-OH)
2. C[C@]12CC[C@@H]3c4ccc(O)cc4CC[C@H]3[C@@H]1CC[C@@H]2O
3. C[C@]12CC[C@@H]3c4ccc(O)cc4CC[C@H]3[C@@H]1CC[C@@H]2OC(=O)CCC(=O)N[C@@H](CCCNC(=N)N)C(=O)NCC(=O)N[C@@H](CC(=O)O)C(=O)N[C@@H](Cc1ccccc1)C(=O)O ({Succinyl(O17-estradiol)}-RGDF-OH)

Out:
1. 0.605
2. 0.608
3. 0.605

// each listed molecule needs a value for Activity
1. C[C@]12CC[C@@H]3c4ccc(O)cc4CC[C@H]3[C@@H]1CC[C@@H]2OC(=O)CCC(=O)N[C@@H](CCCNC(=N)N)C(=O)NCC(=O)N[C@@H](CC(=O)O)C(=O)N[C@@H](Cc1ccccc1)C(=O)N[C@@H](CCCNC(=N)N)C(=O)NCC(=O)N[C@@H](CC(=O)O)C(=O)N[C@@H](Cc1ccccc1)C(=O)O ({Succinyl(O17-estradiol)}-RGDFRGDF-OH)
2. C[C@]12CC[C@@H]3c4ccc(O)cc4CC[C@H]3[C@@H]1CC[C@@H]2OC(=O)CCC(=O)N[C@@H](CCCNC(=N)N)C(=O)NCC(=O)N[C@@H](CC(=O)O)C(=O)N[C@@H](CO)C(=O)O ({Succinyl(O17-estradiol)}-RGDS-OH)

Out:
[0.625, 0.604]

In: Consider the molecule C[C@]12CC[C@@H]3c4ccc(OCC(=O)N[C@@H](CCCNC(=N)N)C(=O)NCC(=O)N[C@@H](CC(=O)O)C(=O)N[C@@H](CO)C(=O)N[C@@H](CCCNC(=N)N)C(=O)NCC(=O)N[C@@H](CC(=O)O)C(=O)N[C@@H](CO)C(=O)O)cc4CC[C@H]3[C@@H]1CC[C@@H]2O ({Acetyl(estradiol-3-yloxy)}-RGDSRGDS-OH) and give its measured Activity.
Out: 0.626

====

Test system: Mus musculus
Assay: Toxicity in ovariectomized ICR mouse assessed as effect on tail bleeding time at 110.3 nmol/kg, po treated for 4 weeks measured after 90 mins of last treatment
Assay type: organism-based
Conditions: in vivo, 1.5 h
Residues, ends and D or L forms follow the SMILES beside them. *: point of attachment. Succinyl(O17-estradiol) = C[C@]12CC[C@@H]3c4ccc(O)cc4CC[C@H]3[C@@H]1CC[C@@H]2OC(=O)CCC(=O)*; Acetyl(estradiol-3-yloxy) = C[C@]12CC[C@@H]3c4ccc(OCC(=O)*)cc4CC[C@H]3[C@@H]1CC[C@@H]2O
What Time was measured for each of the following?
Answers are plain numbers, in s.

Check out these entries, answers already filled in.
C[C@]12CC[C@@H]3c4ccc(OCC(=O)N[C@@H](CCCNC(=N)N)C(=O)NCC(=O)N[C@@H](CC(=O)O)C(=O)N[C@@H](Cc5ccccc5)C(=O)O)cc4CC[C@H]3[C@@H]1CC[C@@H]2O ({Acetyl(estradiol-3-yloxy)}-RGDF-OH) ... 560
C[C@]12CC[C@@H]3c4ccc(OCC(=O)N[C@@H](CCCNC(=N)N)C(=O)NCC(=O)N[C@@H](CC(=O)O)C(=O)N[C@@H](CO)C(=O)O)cc4CC[C@H]3[C@@H]1CC[C@@H]2O ({Acetyl(estradiol-3-yloxy)}-RGDS-OH) ... 577
C[C@]12CC[C@@H]3c4ccc(O)cc4CC[C@H]3[C@@H]1CC[C@@H]2OC(=O)CCC(=O)N[C@@H](CCCNC(=N)N)C(=O)NCC(=O)N[C@@H](CC(=O)O)C(=O)N[C@@H](Cc1ccccc1)C(=O)O ({Succinyl(O17-estradiol)}-RGDF-OH) ... 568

In: State the recorded Time for this entry: C[C@]12CC[C@@H]3c4ccc(O)cc4CC[C@H]3[C@@H]1CC[C@@H]2OC(=O)CCC(=O)N[C@@H](CCCNC(=N)N)C(=O)NCC(=O)N[C@@H](CC(=O)O)C(=O)N[C@@H](CO)C(=O)N[C@@H](CCCNC(=N)N)C(=O)NCC(=O)N[C@@H](CC(=O)O)C(=O)N[C@@H](CO)C(=O)O ({Succinyl(O17-estradiol)}-RGDSRGDS-OH)
Out: 556

====

Exercise: for every item that follows, state its recorded Time.
Tested on: Mus musculus
Assay: Toxicity in ovariectomized ICR mouse assessed as effect on tail bleeding time at 110.3 nmol/kg, po treated for 4 weeks measured after 30 mins of last treatment
Assay type: organism-based
Settings: in vivo, 0.5 h
Residues, ends and D or L forms follow the SMILES beside them. *: point of attachment. Succinyl(O17-estradiol) = C[C@]12CC[C@@H]3c4ccc(O)cc4CC[C@H]3[C@@H]1CC[C@@H]2OC(=O)CCC(=O)*; Acetyl(estradiol-3-yloxy) = C[C@]12CC[C@@H]3c4ccc(OCC(=O)*)cc4CC[C@H]3[C@@H]1CC[C@@H]2O
Numbers only, in s.

State the recorded Time for every item in the following list.
1. CC(C)[C@H](NC(=O)[C@H](CC(=O)O)NC(=O)CNC(=O)[C@H](CCCNC(=N)N)NC(=O)CCC(=O)O[C@H]1CC[C@H]2[C@@H]3CCc4cc(O)ccc4[C@H]3CC[C@]12C)C(=O)O ({Succinyl(O17-estradiol)}-RGDV-OH)
2. C[C@]12CC[C@@H]3c4ccc(O)cc4CC[C@H]3[C@@H]1CC[C@@H]2OC(=O)CCC(=O)N[C@@H](CCCNC(=N)N)C(=O)NCC(=O)N[C@@H](CC(=O)O)C(=O)N[C@@H](CO)C(=O)O ({Succinyl(O17-estradiol)}-RGDS-OH)
3. C[C@]12CC[C@@H]3c4ccc(OCC(=O)N[C@@H](CCCNC(=N)N)C(=O)NCC(=O)N[C@@H](CC(=O)O)C(=O)N[C@@H](Cc5ccccc5)C(=O)N[C@@H](CCCNC(=N)N)C(=O)NCC(=O)N[C@@H](CC(=O)O)C(=O)N[C@@H](Cc5ccccc5)C(=O)O)cc4CC[C@H]3[C@@H]1CC[C@@H]2O ({Acetyl(estradiol-3-yloxy)}-RGDFRGDF-OH)
4. C[C@]12CC[C@@H]3c4ccc(O)cc4CC[C@H]3[C@@H]1CC[C@@H]2OC(=O)CCC(=O)N[C@@H](CCCNC(=N)N)C(=O)NCC(=O)N[C@@H](CC(=O)O)C(=O)N[C@@H](Cc1ccccc1)C(=O)O ({Succinyl(O17-estradiol)}-RGDF-OH)

Out:
551
575
592
576

====

Kindly state Activity for each of the entries shown.
System: Mus musculus
Experiment: Antiosteoporosis activity in ovariectomized ICR mouse assessed as length of femur at 110.3 nmol/kg, po treated for 4 weeks measured after 1 day of last treatment
Assay type: functional
Residues, ends and D or L forms follow the SMILES beside them. *: point of attachment. Succinyl(O17-estradiol) = C[C@]12CC[C@@H]3c4ccc(O)cc4CC[C@H]3[C@@H]1CC[C@@H]2OC(=O)CCC(=O)*; Acetyl(estradiol-3-yloxy) = C[C@]12CC[C@@H]3c4ccc(OCC(=O)*)cc4CC[C@H]3[C@@H]1CC[C@@H]2O
Give bare numbers, in cm.

C[C@]12CC[C@@H]3c4ccc(OCC(=O)N[C@@H](CCCNC(=N)N)C(=O)NCC(=O)N[C@@H](CC(=O)O)C(=O)N[C@@H](Cc5ccccc5)C(=O)O)cc4CC[C@H]3[C@@H]1CC[C@@H]2O ({Acetyl(estradiol-3-yloxy)}-RGDF-OH) ... 1.669

Below are some molecules; for each one, tell me its Activity.
1. C[C@]12CC[C@@H]3c4ccc(OCC(=O)N[C@@H](CCCNC(=N)N)C(=O)NCC(=O)N[C@@H](CC(=O)O)C(=O)N[C@@H](CO)C(=O)O)cc4CC[C@H]3[C@@H]1CC[C@@H]2O ({Acetyl(estradiol-3-yloxy)}-RGDS-OH)
2. C[C@]12CC[C@@H]3c4ccc(OCC(=O)N[C@@H](CCCNC(=N)N)C(=O)NCC(=O)N[C@@H](CC(=O)O)C(=O)N[C@@H](Cc5ccccc5)C(=O)N[C@@H](CCCNC(=N)N)C(=O)NCC(=O)N[C@@H](CC(=O)O)C(=O)N[C@@H](Cc5ccccc5)C(=O)O)cc4CC[C@H]3[C@@H]1CC[C@@H]2O ({Acetyl(estradiol-3-yloxy)}-RGDFRGDF-OH)
3. C[C@]12CC[C@@H]3c4ccc(O)cc4CC[C@H]3[C@@H]1CC[C@@H]2OC(=O)CCC(=O)N[C@@H](CCCNC(=N)N)C(=O)NCC(=O)N[C@@H](CC(=O)O)C(=O)N[C@@H](CO)C(=O)N[C@@H](CCCNC(=N)N)C(=O)NCC(=O)N[C@@H](CC(=O)O)C(=O)N[C@@H](CO)C(=O)O ({Succinyl(O17-estradiol)}-RGDSRGDS-OH)

Out:
1. 1.646
2. 1.641
3. 1.665
